measurement protocol: Repaglinide plasma PK, DDI study stage 2
protocol conditions: human, plasma, po, 0.5 mg
measurement name: Vd/F

Consider the molecule CCOc1cc(CC(=O)N[C@@H](CC(C)C)c2ccccc2N2CCCCC2)ccc1C(=O)O [Repaglinide, repaglinide] and give its measured Vd/F.
162 L

* * *

measurement protocol: Midazolam and 1-hydroxymidazolam plasma PK, DDI study stage 1
protocol conditions: human, plasma, po, 4 mg
measurement name: Vd/F (L)
Enter your answer as a number in L; do not include the unit.

Give its Vd/F value. Item: Cc1ncc2n1-c1ccc(Cl)cc1C(c1ccccc1F)=NC2
413

* * *

measurement protocol: Midazolam and 1-hydroxymidazolam plasma PK, DDI study stage 1
protocol conditions: human, plasma, po, 4 mg
measurement name: Tmax (min)
A number alone suffices; assume min.

Item under review: Cc1ncc2n1-c1ccc(Cl)cc1C(c1ccccc1F)=NC2 [Midazolam, midazolam] . Reported Tmax?
30.6

* * *

measurement protocol: Midazolam and 1-hydroxymidazolam plasma PK, DDI study stage 1
protocol conditions: human, plasma, oral, Cmax, adjusted G mean, midazolam alone; linear mixed model
measurement name: Cmax (ng/mL)
# value in ng/mL; strip the unit string

Could you tell me which Cmax is on file for Cc1ncc2n1-c1ccc(Cl)cc1C(c1ccccc1F)=NC2 ?
15.9
